# Test system: HCC-2998 colon
# assayComment: NCI tumour cell line growth inhibition, 48 h
Consider the following compounds; for each one, report its GI50.

So, "C=C1C(=O)O[C@H]2[C@H]1CC/C(COC(=O)c1cc3cc(OC)ccc3[nH]1)=C\CC[C@@]1(C)O[C@@H]21" ? Its GI50 was 1.54 µM

Entry "CS(=O)(=O)Nc1ccc(-c2ccc3c(NC(=O)C4CC4)n[nH]c3c2)cc1" — recorded GI50 = > 25 µM

Record summary for "COc1ccc(-c2cc(-c3cc(Cl)ccc3Cl)nc3nc(=S)[nH]c(N)c23)cc1" : reported GI50 = 23.1 µM

The measured GI50 associated with "CN1CCN(Cc2ccc(NC(=O)c3ccc(C(C)(C)C)c(C#Cc4cnc5cccnn45)c3)cc2C(F)(F)F)CC1" reads 1.83 µM

###

# Test system: SK-MEL-2 melanoma
# assayComment: NCI tumour cell line growth inhibition, 48 h
Record form. Attribute: GI50. Fill in for each entry.

Short answer on SK-MEL-2 melanoma for "CCCS(=O)(=O)c1nc(NC2CC2)cc(-c2ccc3c(ccn3C3CC(C)(C)NC(C)(C)C3)c2)n1" , GI50: 1.88 µM

The measured GI50 that "COc1cc2c3c(n(CCCN4CCC(N)CC4)c(=O)c2cc1OC)-c1cc2c(cc1C3=O)OCO2" showed for SK-MEL-2 melanoma is 3.68 µM

The recorded GI50 with SK-MEL-2 melanoma for "O=P(O)(O)C(O)(Cn1ccnc1)P(=O)(O)O" was > 100 µM

Entry "CN(C)CCNC(=O)Nc1c(C#N)[n+]([O-])c2cc(Cl)c(Cl)cc2[n+]1[O-]" ; assay system SK-MEL-2 melanoma; GI50 recorded at 15.9 µM

Measured GI50 for this entry "CNC(=O)c1cn(C[C@H](F)CCc2ccc(NC(=O)Cc3cc(OC4CC(F)(F)C4)cc(C)n3)nn2)nn1" on SK-MEL-2 melanoma: > 100 µM

###

# Test system: IGROV1 ovarian
# assayComment: NCI tumour cell line growth inhibition, 48 h
valueType: GI50

GI50 recorded for this compound, "Clc1ccc(OCc2nnc3n2N=C(c2ccc(Cl)cc2Cl)CS3)c(Cl)c1" , is 20 µM

Given item "C=C1C(=O)O[C@H]2[C@H]1CC/C(COC(=O)c1cc3cc(OC)ccc3[nH]1)=C\CC[C@@]1(C)O[C@@H]21" , the value recorded as its GI50 is 1.48 µM

Form field GI50, entry "Oc1ccc(Cc2ccccc2)c2cccnc12" : 2.2 µM

GET /value?item= "C=C1CC(COc2cc(Cl)nc(N)n2)C1" &field=GI50 returns 84.1 µM

// sample "CCCCCCNc1nc(NCCCCCC)c2[nH]c(NCCCCCC)nc2n1" , its GI50 was 19 µM

The compound listed as "C=CC(=O)N1CCN(c2ncnc3c(F)c(-c4c(O)cccc4F)c(Cl)cc23)CC1" shows GI50 equal to 11.6 µM

The recorded GI50 for entry "CN(C)c1nc(-c2cccs2)n2nc(-c3ccc(Cl)cc3)cc2n1" equals 5.28 µM

Lab note: measured GI50 of "COc1cc(-c2cn(C)c(=O)c(C)c2C)cc(OC)c1CN1CC[C@H](N2CCN(c3ccc(N[C@H]4CCC(=O)NC4=O)cc3F)CC2)C(F)(F)C1" was 13.8 µM

GI50 for "COc1ccc(NC2=C(Br)C(=O)C(C)=C(C)C2=O)cc1" is 1.8 µM

Entry Cc1ccc(C(=O)CC(Sc2cccc(Cl)c2Cl)c2ccc(Cl)cc2)cc1C (stereo not given) , GI50 reported as 19.7 µM

###

# Test system: MDA-MB-435
# assayComment: NCI tumour cell line growth inhibition, 48 h
valueType: TGI

Consider "NS(=O)(=O)c1nnc(NSc2ccc([N+](=O)[O-])cc2)s1" . Its measured TGI is > 100 µM

Field TGI (entry "Cc1ncc([N+](=O)[O-])n1CCNC(=O)CCCCn1ccnc1[N+](=O)[O-]" ) reads > 100 µM

TGI reading for "COc1cc2c3c(n(C)c(=O)c2cc1OC)-c1cc2c(cc1/C3=C/CCCCBr)OCO2" : > 100 µM

Please fill in: TGI reported for "Cc1cc2c(cc1Cl)SC(NNc1cnc3ccccc3n1)=NS2(=O)=O" = > 100 µM

// field: TGI; key: OCC1OC(O[C@H]2CN3[C@H](O)[C@@H](O)[C@H](O)[C@H]3C2O)C(O)C(O)C1O (stereo partly drawn) ; value = > 100 µM

The molecule listed as "O=c1oc2ccccc2c2nc3ccccc3cc12" shows TGI equal to > 100 µM

Entry under test: COc1cc(/C=C2\CC3C4CC=C5CC(N6CCCC6)CC[C@]5(C)C4CC[C@]3(C)C2OC(C)=O)ccc1OCCN1CCCC1 (stereo partly drawn) . Its TGI was 35.5 µM

// field: TGI; key: "CCc1cc(=O)n(/C(C)=C/c2ccccc2)n1C" ; value = > 100 µM

Reported TGI ( CC(O)(C(=O)N(O)c1ccc(Cl)cc1)c1ccc(Cl)cc1 (stereo not drawn) ) = 87.8 µM

Form field TGI, entry "Oc1ccc(Cc2ccccc2)c2cccnc12" : > 100 µM

So for COC(=O)NC/C=C\c1nc(CC/C=C\C(=O)OC2CC3CC(=O)O[C@@H](/C=C/CC(C)C)C[C@@H]4CCC(C)C(C[C@@H](OC)CC(C2)O3)O4)co1 (stereo partly drawn) , the logged TGI turned out to be 50.1 µM

Noted for CC12CCC(C/C1=N\NC(N)=O)C2(C)C (stereo not drawn) : its TGI reads > 100 µM

TGI for "COc1ccc(CCCCl)c(C2=NCCc3ccccc32)c1" is > 100 µM

Recorded result, "Brc1ccc2c(c1)-c1nc3c(cc1CC2)CCc1ccc(Br)cc1-3" , TGI: > 100 µM

Per the record, "Clc1ccc(OCc2nnc3n2N=C(c2ccc(Cl)cc2Cl)CS3)c(Cl)c1" has TGI of > 100 µM

Lookup result for "CNC(=O)c1cc(Oc2ccc(NC(=O)Nc3ccc(Cl)c(OC(F)(F)F)c3)c(F)c2)ccn1" ; measured TGI: 10.9 µM

molecule Clc1cccc(C2ON=C(c3ccccc3)N2C23CC4CC(CC(C4)C2)C3)c1Cl (stereo not drawn) , TGI observed: > 10 µM

// "O=C(N/N=C/c1ccc(Cl)cc1Cl)c1ccccc1Nc1cccc(C(F)(F)F)c1" : TGI value = > 100 µM

Field TGI (entry "CC[P+](C#Cc1ccccc1)(c1ccccc1)c1ccccc1" ) reads 2.83 µM

// TGI lookup, molecule = COC(=O)[C@H]1C=C[C@H](OC2OC(COC(C)=O)C(OC(C)=O)C(OC(C)=O)C2OC(C)=O)n2c(=O)n(-c3ccccc3)c(=O)n21 (stereo partly drawn) , result: 16.6 µM

response.value for "CCOP(=O)(OCC)c1cc(-c2ccccc2)ccc1N" (field: TGI) = > 100 µM

Entry COC(=O)C(Cc1ccccc1)N/C=C\C(=O)c1ccc(Cl)cc1 (stereo not drawn) ; TGI = 30.8 µM

TGI reading for "O=C(NCCCNCCCCNCCCNC(=O)C(F)(F)F)C(F)(F)F" : > 100 µM

Just so you know, measured TGI for COc1ccc(N2C(=O)C3c4[nH]c5ccccc5c4C4C(C)CCCC4C3C2=O)cc1 (stereo not drawn) came out at > 30.2 µM

Value of measured TGI for the entry "CC(C)(C)c1nc2c(o1)C(=Nc1ccc(F)cc1)c1ccccc1C2=O" : 3.76 µM

Reported TGI ( "COc1ccc(CN2C(=O)C(=O)N(C)C2=O)c2ccccc12" ) = > 10 µM

In plain terms, "FC(F)=C(c1ccc(-c2ccc(Cl)cc2)cc1)C(F)(F)F" has a documented TGI of 49.4 µM

Field TGI (entry "CCOC(=O)c1ccc(C(=O)/C(C(=O)OC(C)(C)C)=C2\CCCN2C)n1C" ) reads > 100 µM

Briefly, TGI measured for "O=C1c2ccccc2-c2c1c1ccccc1c(=O)n2CCNCCCNCCn1c2c(c3ccccc3c1=O)C(=O)c1ccccc1-2" : 1.1 µM

So, C=C(C)[C@@H]1CC[C@@]2(C(=O)O)CC[C@]3(C)C(CCC4[C@@]5(C)CCC(OS(=O)(=O)c6ccccc6)C(C)(C)C5CC[C@]43C)C12 (stereo partly drawn) ? Its TGI was 20.1 µM

The molecule listed as "Cc1sc(C)c(-c2ccc(CO)o2)c1-c1ccc(CO)o1" shows TGI equal to > 100 µM

// TGI value for "CCN(C(=O)N[C@H](C(=O)N[C@@H](C)C(=O)OC)C(C)C)c1ccccc1" : 52.2 µM

Note to self: TGI recorded for Cc1ccc(-n2cc(-c3ccc(Cl)cc3)c3c2N=CN2NC(c4ccco4)=NC32)cc1 (stereo not drawn) was > 100 µM

###

# Tested on: RXF 393 renal
# assayComment: NCI tumour cell line growth inhibition, 48 h
valueType: TGI

// TGI value for O=C(c1ccccc1)[C@H]1Nc2cnccc2C2c3ccccc3CC21 (stereo partly specified) : 50.4 µM

# compound "CCN(CC)CCCNc1ccc([N+](=O)[O-])c2nc3ccc(OC)cc3c(NCCCN(CC)CC)c12" ; its TGI = 4.05 µM

Form field TGI, entry "CC1=C(C(=O)NNC(=O)CC#N)CC(C(=O)NNC(=O)CC#N)=C(C)N1" : > 100 µM

Item: C=C(COC(C)=O)CC(/C=C(\C)CCC=C(C)C)OC(C)=O (stereo unspecified) | TGI: > 100 µM

Field TGI (entry "COc1ccc(CN2C(=O)C(=O)N(C)C2=O)c2ccccc12" ) reads > 10 µM

Field TGI (entry "NNC(=O)c1cccc2c1Oc1ccccc1S2" ) reads > 100 µM
